tested on: H3N2 subtype; experiment: Antiviral activity against Influenza A/HK/7/87 infected in MDCK cells assessed as inhibition of virus-induced cytopathic effect measured on day 3 post infection by MTS assay; format: functional, organism-based; conditions: A/Hong Kong/7/1987(H3N2), 72 h
ENDPOINT LABEL: pEC50
# pEC50 = -log10(concentration in molar units)

I'd like to know its pEC50. The compound in question is COC(=O)[C@H]1NC(=O)[C@H]2NC(=O)[C@H](NC(=O)[C@@H]3NC(=O)[C@H]4NC(=O)[C@H](NC(=O)[C@H](n5cc6cc7ccccc7cc6c5Sc5ncccn5)c5ccc(O)c(c5)Oc5cc4cc(O)c5C)[C@H](O)c4ccc(cc4)Oc4cc3cc(c4O)Oc3ccc(cc3)[C@H]2O)c2ccc(O)c(c2)-c2c(O)cc(O)cc21
6.44

I'd like to know its pEC50. The compound in question is COC(=O)[C@H]1NC(=O)[C@H]2NC(=O)[C@H](NC(=O)[C@@H]3NC(=O)[C@H]4NC(=O)[C@H](NC(=O)[C@H](N)c5ccc(O)c(c5)Oc5cc4cc(O)c5C)[C@H](O)c4ccc(cc4)Oc4cc3cc(c4O)Oc3ccc(cc3)[C@H]2O)c2ccc(O)c(c2)-c2c(O)cc(O)cc21
5.17

I'd like to know its pEC50. The compound in question is COC(=O)[C@H]1NC(=O)[C@H]2NC(=O)[C@H](NC(=O)[C@@H]3NC(=O)[C@H]4NC(=O)[C@H](NC(=O)[C@H](n5cc6ccccc6c5Sc5ncccn5)c5ccc(O)c(c5)Oc5cc4cc(O)c5C)[C@H](O)c4ccc(cc4)Oc4cc3cc(c4O)Oc3ccc(cc3)[C@H]2O)c2ccc(O)c(c2)-c2c(O)cc(O)cc21
5.74
